- MEASURED TARGET: IRAK4 (Homo sapiens, UniProt Q9NWZ3)
- Construct: endogenous in cells; host or cells: Karpas299
- ASSAY DETAILS: IRAK4 Degradation Assay (Karpas299, HTRF/TR-FRET)
- Format: cell-based
- APPLIED CONDITIONS: Degradation (Karpas-299), comparison table, Linker Type A; read-out: Compound (Linker Type A) DC50
MEASURED PROPERTY: DC50 (nM)

(I) COc1cc2nn([C@H]3CC[C@H](CN4CCN(C(=O)[C@@H]5CCN(c6ccc(N7CCC(=O)NC7=O)cc6)C5)CC4)CC3)cc2cc1NC(=O)c1cccc(C(F)(F)F)n1
(II) COc1cc2nn([C@H]3CC[C@H](CN4CCN(C(=O)C5CCN(c6ccc(N7CCC(=O)NC7=O)cc6)CC5)CC4)CC3)cc2cc1NC(=O)c1cccc(C(F)(F)F)n1
**Q:** I'm curious, which of these has a smaller DC50 number: I or II ? Write the label of whichever entry you select.
**A:** I
(I: 15 nM, II: 137 nM)

(a) O=C1CC[C@H](c2c(F)cc(N3CC(C(=O)N4CCN(C[C@H]5CC[C@H](n6cc(NC(=O)c7coc(-c8ccnc(NCC(F)(F)F)c8)n7)c(C(F)F)n6)CC5)CC4)C3)cc2F)C(=O)N1
(b) COc1cc2nn([C@H]3CC[C@H](CN4CCN(C(=O)C5CN(c6ccc(N7CCC(=O)NC7=O)cc6)C5)CC4)CC3)cc2cc1NC(=O)c1cccc(C(F)(F)F)n1
**Q:** I'm curious, which of these has a smaller DC50 number: a or b ? Write the label of whichever entry you select.
**A:** a

----------
- MEASURED TARGET: IRAK4 (Homo sapiens)
- Construct: endogenous in cells; host or cells: Karpas299
- ASSAY DETAILS: IRAK4 Degradation Assay (Karpas299, HTRF/TR-FRET)
- Format: cell-based
- APPLIED CONDITIONS: Karpas-299 cells, 24 h treatment; read-out: IRAK4 in Karpas-299 (24 h) DC50
MEASURED PROPERTY: DC50 (nM)

**Q:** Tell me the measured DC50 of CC(C)(O)c1cc2nn([C@H]3CC[C@H](N4CCN(C(=O)C5CN(c6cc(F)c([C@H]7CCC(=O)NC7=O)c(F)c6)C5)CC4)CC3)cc2cc1NC(=O)c1cccc(C(F)(F)F)n1 [Example 38] , please.
**A:** 0.4

**Q:** Tell me the measured DC50 of CC(C)(O)c1cc2nc(C3CCN(C4CN(C(=O)[C@@H]5CCN(c6cc(F)c([C@H]7CCC(=O)NC7=O)c(F)c6)C5)C4)CC3)cn2cc1NC(=O)c1cccc(C(F)(F)F)n1 [Example 50] , please.
**A:** 1.5

**Q:** Tell me the measured DC50 of CC(C)(O)c1cc2nn([C@H]3CC[C@H](N4CCN(C(=O)[C@@H]5CCN(c6cc(F)c([C@H]7CCC(=O)NC7=O)c(F)c6)C5)CC4)CC3)cc2cc1NC(=O)c1ccc2c(n1)C(F)(F)CCC2 [Example 172] , please.
**A:** 1.6

**Q:** Tell me the measured DC50 of COC[C@@H]1CN(C(=O)C2CN(c3cc(F)c([C@H]4CCC(=O)NC4=O)c(F)c3)C2)CCN1[C@H]1CC[C@H](n2cc3cc(NC(=O)c4ccc5cc(C#N)cnn45)c(C(C)(C)O)cc3n2)CC1 [Example 183] , please.
**A:** 0.3

**Q:** Tell me the measured DC50 of COC[C@H]1CN([C@H]2CC[C@H](n3cc4cc(NC(=O)c5ccc6cc(C#N)cnn56)c(C(C)(C)O)cc4n3)CC2)CCN1CC1CCN(c2ccc3c(c2)CN(C2CCC(=O)NC2=O)C3=O)CC1 (stereo partly shown) [Example 402] , please.
**A:** 0.9

(I) CC(C)(O)c1cc2nn([C@H]3CC[C@H](N4C[C@@H]5CN(CCc6cc(F)c([C@H]7CCC(=O)NC7=O)c(F)c6)C[C@H]5C4)CC3)cc2cc1NC(=O)c1ccc2cc(C#N)cnn12 [Example 362]
(II) COc1cc2nn([C@H]3CC[C@H](N4CCN(CC5CN(c6cc(F)c([C@H]7CCC(=O)NC7=O)c(F)c6)C5)CC4)CC3)cc2cc1C(=O)Nc1cnc2cccnn12 [Example 345]
**Q:** I'm curious, which of these has a smaller DC50 number: I or II ? Write the label of whichever entry you select.
**A:** II

----------
- MEASURED TARGET: IRAK4 (Homo sapiens)
- Construct: endogenous in cells; host or cells: Karpas299
- Sequence (Q9NWZ3 1-460): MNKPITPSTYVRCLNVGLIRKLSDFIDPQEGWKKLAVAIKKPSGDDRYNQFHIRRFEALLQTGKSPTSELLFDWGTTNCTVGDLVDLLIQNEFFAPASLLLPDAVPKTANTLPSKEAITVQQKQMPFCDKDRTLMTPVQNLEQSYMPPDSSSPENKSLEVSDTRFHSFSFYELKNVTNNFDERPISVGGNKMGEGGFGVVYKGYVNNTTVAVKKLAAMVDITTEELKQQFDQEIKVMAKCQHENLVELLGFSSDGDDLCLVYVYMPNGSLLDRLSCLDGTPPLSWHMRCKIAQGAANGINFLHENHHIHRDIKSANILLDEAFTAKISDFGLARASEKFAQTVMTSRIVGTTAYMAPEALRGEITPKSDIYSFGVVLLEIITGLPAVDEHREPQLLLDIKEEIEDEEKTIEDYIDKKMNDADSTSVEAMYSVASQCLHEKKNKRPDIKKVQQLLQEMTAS
- ASSAY DETAILS: IRAK4 Degradation Assay with Human Serum (Karpas299, HTRF/TR-FRET)
- Type: cell-based
- APPLIED CONDITIONS: Karpas-299 in human serum, 24 hrs treatment; read-out: IRAK4 degradtion with human serum assay Dmax (%)
MEASURED PROPERTY: Dmax (%)

**Q:** Tell me the measured Dmax of COC[C@H]1CN(C2CCN(c3cc(F)c([C@H]4CCC(=O)NC4=O)c(F)c3)CC2)CCN1[C@H]1CC[C@H](n2cc3cc(NC(=O)c4ccc5cc(C#N)cnn45)c(C(C)(C)O)cc3n2)CC1 , please.
**A:** 99

**Q:** Tell me the measured Dmax of Cn1c(=O)n(C2CCC(=O)NC2=O)c2cccc(CCCN3CCN(C45CC(n6cc7cc(NC(=O)c8ccc9cc(C#N)cnn89)c(C(C)(C)O)cc7n6)(C4)C5)CC3)c21 (stereo not shown) , please.
**A:** 97

**Q:** Tell me the measured Dmax of COC[C@H]1CN([C@H]2CC[C@H](n3cc4cc(NC(=O)c5ccc6cc(C#N)cnn56)c(C(C)(C)O)cc4n3)CC2)CCN1C1CN(c2cc(F)c([C@H]3CCC(=O)NC3=O)c(F)c2)C1 , please.
**A:** 95

**Q:** Tell me the measured Dmax of C[C@H]1CN(C2CN(c3cc(F)c([C@H]4CCC(=O)NC4=O)c(F)c3)C2)CCN1[C@H]1CC[C@H](n2cc3cc(NC(=O)c4ccc5cc(C#N)cnn45)c(C(C)(C)O)cc3n2)CC1 , please.
**A:** 99

**Q:** Tell me the measured Dmax of CC(C)(O)c1cc2nn([C@H]3CC[C@H](N4CCN(C(=O)C5CCN(c6cc(F)c([C@H]7CCC(=O)NC7=O)c(F)c6)CC5)CC4)CC3)cc2cc1NC(=O)c1ccc2cc(C#N)cnn12 , please.
**A:** 97

**Q:** Tell me the measured Dmax of CC(C)(O)c1cc2nn(C34CC(N5CCN(CCC6CCN(c7cc(F)c([C@H]8CCC(=O)NC8=O)c(F)c7)CC6)CC5)(C3)C4)cc2cc1NC(=O)c1ccc2cc(C#N)cnn12 , please.
**A:** 98

**Q:** Tell me the measured Dmax of COC[C@@H]1CN([C@H]2CC[C@H](n3cc4cc(NC(=O)c5ccc6cc(C#N)cnn56)c(C(C)(C)O)cc4n3)CC2)CCN1C1CCN(c2cc(F)c([C@H]3CCC(=O)NC3=O)c(F)c2)CC1 , please.
**A:** 98

**Q:** Tell me the measured Dmax of CC(C)(O)c1cc2nn([C@H]3CC[C@H](C4CCN(CC5CN(c6cc(F)c([C@H]7CCC(=O)NC7=O)c(F)c6)C5)CC4)CC3)cc2cc1NC(=O)c1ccc2cc(C#N)cnn12 , please.
**A:** 99

**Q:** Tell me the measured Dmax of COC[C@@H]1CN(C(=O)C2CN(c3cc(F)c([C@H]4CCC(=O)NC4=O)c(F)c3)C2)CCN1[C@H]1CC[C@H](n2cc3cc(NC(=O)c4ccc5cc(C#N)cnn45)c(C(C)(C)O)cc3n2)CC1 , please.
**A:** 95

**Q:** Tell me the measured Dmax of COc1cc(N2CC(C(=O)N3CCN([C@H]4CC[C@H](n5cc6cc(NC(=O)c7ccc8cc(C#N)cnn78)c7c(c6n5)OCO7)CC4)CC3)C2)ccc1[C@H]1CCC(=O)NC1=O , please.
**A:** 102
